B1: glmS ribozyme (parent)
chain: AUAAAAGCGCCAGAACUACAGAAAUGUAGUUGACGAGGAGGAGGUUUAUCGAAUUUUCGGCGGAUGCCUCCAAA

variants of: B1; assay: self-cleavage kobs at 10000 uM GlcN6P; higher = faster cleavage; RNA array; conditions: with glucosamine-6-phosphate
Variants at the floor of the assay were thinned out.
Reported self-cleavage kobs at 10000 uM GlcN6P by item:
measurement-name: self-cleavage kobs at 10000 uM GlcN6P

{"mutation-list": "G51A U69C", "measurement-name": "self-cleavage kobs at 10000 uM GlcN6P", "measured-result": "< 1e-05 s⁻¹"}
{"mutation-list": "U31A C34U G44A", "measurement-name": "self-cleavage kobs at 10000 uM GlcN6P", "measured-result": "< 1e-05 s⁻¹"}
{"mutation-list": "A6G G51U U65A", "measurement-name": "self-cleavage kobs at 10000 uM GlcN6P", "measured-result": "< 1e-05 s⁻¹"}
{"mutation-list": "U45G U49C", "measurement-name": "self-cleavage kobs at 10000 uM GlcN6P", "measured-result": "< 1e-05 s⁻¹"}
{"mutation-list": "A33C G51U", "measurement-name": "self-cleavage kobs at 10000 uM GlcN6P", "measured-result": "< 1e-05 s⁻¹"}
{"mutation-list": "G7C C10U A15U U49C", "measurement-name": "self-cleavage kobs at 10000 uM GlcN6P", "measured-result": "< 1e-05 s⁻¹"}
{"mutation-list": "C34A A36C G37U U69G", "measurement-name": "self-cleavage kobs at 10000 uM GlcN6P", "measured-result": "0.000153 s⁻¹"}
{"mutation-list": "G7A A39G", "measurement-name": "self-cleavage kobs at 10000 uM GlcN6P", "measured-result": "2.51e-05 s⁻¹"}
{"mutation-list": "U47G U56G C61U C67G C70U", "measurement-name": "self-cleavage kobs at 10000 uM GlcN6P", "measured-result": "4.99e-05 s⁻¹"}
{"mutation-list": "G13A G43A", "measurement-name": "self-cleavage kobs at 10000 uM GlcN6P", "measured-result": "< 1e-05 s⁻¹"}
{"mutation-list": "A39C U45A", "measurement-name": "self-cleavage kobs at 10000 uM GlcN6P", "measured-result": "0.00397 s⁻¹"}
{"mutation-list": "C34U U54G G63U", "measurement-name": "self-cleavage kobs at 10000 uM GlcN6P", "measured-result": "< 1e-05 s⁻¹"}
{"mutation-list": "A12U A15U C16A", "measurement-name": "self-cleavage kobs at 10000 uM GlcN6P", "measured-result": "0.00105 s⁻¹"}
{"mutation-list": "G40C C50U G60C", "measurement-name": "self-cleavage kobs at 10000 uM GlcN6P", "measured-result": "< 1e-05 s⁻¹"}
{"mutation-list": "C16G G37C G62A", "measurement-name": "self-cleavage kobs at 10000 uM GlcN6P", "measured-result": "< 1e-05 s⁻¹"}
{"mutation-list": "G29C C34U G35A G40U G59C", "measurement-name": "self-cleavage kobs at 10000 uM GlcN6P", "measured-result": "< 1e-05 s⁻¹"}
